# Tested on: tankyrase 1/2
# procedure.text: Cellular inhibition of Tankyrase: increase of Axin2 level in DLD1 cells (Luminex)
# Assay type: cell-based
# test.context: 24 hours, read-out: EC50 tankyrase 1/2 (cell assay)
pEC50: −log10 of the molar value.
experimental.endpoint: pEC50

Below are worked cases with known answers.
smi	assay.system	pEC50
CC(C)(C)c1ccc(-c2cn3nc(C(F)F)cc3c(=O)[nH]2)cc1	tankyrase 1/2	5.52 to 6.52
O=c1[nH]c(-c2ccc(C3(O)CCNCC3)cc2)cn2cccc12	tankyrase 1/2	4.30 to 5.52
O=c1[nH]c(-c2ccc(C(F)(F)F)cc2)cn2cccc12	tankyrase 1/2	5.52 to 6.52
O=c1[nH]c(-c2ccc(C3CCNCC3)cc2)cn2cc(Cl)cc12	tankyrase 1/2	5.52 to 6.52

Could you now look at the following compound, please?
## Task What does the data say about its pEC50? Entry: CC(C)(C)c1ccc(-c2cn3nc(CF)cc3c(=O)[nH]2)cc1
## Result 5.52 to 6.52

---

Documented pEC50 across a set of molecules
# Test system: tankyrase 1/2
# procedure.text: Cellular inhibition of Tankyrase: increase of Axin2 level in DLD1 cells (Luminex)
# Assay type: cell-based
# test.context: 24 hours, read-out: EC50 tankyrase 1/2 (cell assay)
pEC50: −log10 of the molar value.

## Task What does the data say about its pEC50? Entry: O=c1[nH]c(-c2ccc(-c3cnn(CCN4CCCC4)c3)cc2)cn2cccc12
## Result 5.52 to 6.52

## Task What about this molecule? O=c1[nH]c(-c2ccc(C3CCNCC3)cc2)cn2cccc12
## Result 5.52 to 6.52

---

# Test system: tankyrase 1/2
# procedure.text: Cellular inhibition of Tankyrase: increase of Axin2 level in DLD1 cells (Luminex)
# Format: cell-based
# test.context: 24 hours, read-out: EC50 tankyrase 1/2 (cell assay)
pEC50: −log10 of the molar value. Structures can show the parent of a compound that is named as a salt.
Documented pEC50 across a set of compounds

Below are worked cases with known answers.
compound	assay.system	pEC50
Cc1ccc2c(=O)[nH]c(-c3ccc(Br)cc3)cn12	tankyrase 1/2	5.52 to 6.52
O=c1[nH]c(-c2ccc(C3(O)COC3)cc2)cn2cccc12	tankyrase 1/2	5.52 to 6.52
O=c1[nH]c(-c2ccc(C3CCNCC3)cc2)cn2cc(F)cc12	tankyrase 1/2	5.52 to 6.52
CN1CCC(c2ccc(-c3cn4cc(F)cc4c(=O)[nH]3)cc2)CC1	tankyrase 1/2	5.52 to 6.52
Cc1cc2c(=O)[nH]c(-c3ccc(C(C)(C)O)cc3)cn2n1	tankyrase 1/2	5.52 to 6.52
Cc1ccc(-c2cn3cccc3c(=O)[nH]2)cc1 [Compound A12, 3-p-tolyl-2H-pyrrolo[1,2-a]pyrazin-1-one]	tankyrase 1/2	5.52 to 6.52
CC(C)(C)c1ccc(-c2cn3cc(C#N)cc3c(=O)[nH]2)cc1	tankyrase 1/2	4.30 to 5.52
O=c1[nH]c(-c2ccc(C3(O)CNC3)cc2)cn2cccc12 [Compound A86, hydrochloride]	tankyrase 1/2	4.30 to 5.52

Could you now look at the following compound, please?
## Task What does the data say about its pEC50? Entry: CC(C)(O)c1ccc(-c2cn3cccc3c(=O)[nH]2)cc1
## Result > 6.52

---

Here we list molecules with their recorded IC50 when tested on GST-tagged Tankyrase-1 (1023-1327 aa) (Homo sapiens, UniProt O95271).
Sequence (O95271 1023-1327): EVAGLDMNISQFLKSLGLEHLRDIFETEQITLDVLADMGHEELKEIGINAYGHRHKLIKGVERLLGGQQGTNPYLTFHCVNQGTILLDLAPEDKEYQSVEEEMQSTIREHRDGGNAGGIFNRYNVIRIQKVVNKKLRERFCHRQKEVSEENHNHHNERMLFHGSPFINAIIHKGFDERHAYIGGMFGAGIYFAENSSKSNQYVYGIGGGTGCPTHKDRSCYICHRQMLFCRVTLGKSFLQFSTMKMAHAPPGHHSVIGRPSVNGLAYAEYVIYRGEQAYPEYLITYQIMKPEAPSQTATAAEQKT

Below are worked cases with known answers.
smi	IC50
Cc1cc2c(=O)[nH]c(-c3ccc(-c4cnn(C)c4)cc3)cn2c1	< 300 nM
CC(C)(F)c1ccc(-c2cn3cc(F)cc3c(=O)[nH]2)cc1	< 300 nM
COc1cccc(-c2cn3cccc3c(=O)[nH]2)c1	300 to 3000 nM
CC(C)Oc1ccc(-c2cn3nc(CO)cc3c(=O)[nH]2)cc1	300 to 3000 nM

Could you now look at the following molecule, please?
## Task Param readout = IC50; param system = GST-tagged Tankyrase-1 (1023-1327 aa) (Homo sapiens, UniProt O95271); param query = O=c1[nH]c(-c2ccc(Br)cc2)cn2nc(C(F)(F)F)cc12 ; response: value
## Result 300 to 3000 nM

---

Documented pEC50 across a set of compounds
# System: tankyrase 1/2
# procedure.text: Cellular inhibition of Tankyrase: increase of Axin2 level in DLD1 cells (Luminex)
# Assay type: cell-based
# test.context: 24 hours, read-out: EC50 tankyrase 1/2 (cell assay)
pEC50: −log10 of the molar value.

Below are worked cases with known answers.
compound	experimental.endpoint	reported
CC(C)(C)c1ccc(-c2cn3cc(F)cc3c(=O)[nH]2)cc1	pEC50	> 6.52
O=c1[nH]c(-c2ccc(N3CCCC3)cc2)cn2nccc12	pEC50	5.52 to 6.52
Cc1cc2c(=O)[nH]c(-c3ccc(-c4cnn(C)c4)cc3)cn2c1	pEC50	5.52 to 6.52
Cc1cc2c(=O)[nH]c(-c3ccc(OC(F)(F)F)cc3)cn2n1	pEC50	5.52 to 6.52
CC(C)(OCCO)c1ccc(-c2cn3cc(F)cc3c(=O)[nH]2)cc1	pEC50	> 6.52
CCC(O)(CC)c1ccc(-c2cn3cc(F)cc3c(=O)[nH]2)cc1	pEC50	> 6.52

## Task What does the data say about its pEC50? Entry: Cc1ccc2c(=O)[nH]c(-c3ccc(C(C)(C)O)cc3)cn12
## Result > 6.52

## Task What about this compound? CC(C)(C)c1ccc(-c2cn3nc(CO)cc3c(=O)[nH]2)cc1
## Result 5.52 to 6.52

---

Here we list compounds with their recorded IC50 when tested on GST-tagged Tankyrase-2 (873-1166 aa) (Homo sapiens).
Sequence (Q9H2K2 873-1166): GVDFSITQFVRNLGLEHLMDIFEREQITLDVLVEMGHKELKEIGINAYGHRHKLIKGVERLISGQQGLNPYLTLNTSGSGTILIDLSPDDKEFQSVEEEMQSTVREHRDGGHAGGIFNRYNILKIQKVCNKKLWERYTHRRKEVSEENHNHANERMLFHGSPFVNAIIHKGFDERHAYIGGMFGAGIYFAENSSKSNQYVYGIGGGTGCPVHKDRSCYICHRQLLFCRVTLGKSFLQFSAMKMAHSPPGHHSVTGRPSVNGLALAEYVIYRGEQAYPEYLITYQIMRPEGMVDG

compound	IC50
Cc1cc2c(=O)[nH]c(-c3ccc(OC(F)(F)F)cc3)cn2n1	300 to 3000 nM
CC(C)(C)c1ccc(-c2cn3nc(C(F)F)cc3c(=O)[nH]2)cc1	300 to 3000 nM
Cc1cc2c(=O)[nH]c(-c3ccc(N4CCCC4)cc3)cn2n1	300 to 3000 nM

## Task What does the data say about its IC50? Entry: CN1CCC(c2ccc(-c3cn4cc(F)cc4c(=O)[nH]3)cc2)CC1
## Result 300 to 3000 nM

## Task What about this compound? O=c1[nH]c(-c2ccc(C3CCNC3)cc2)cn2cccc12 (stereo not shown)
## Result 300 to 3000 nM

## Task What about this compound? O=c1[nH]c(-c2ccc(C3(O)CCNCC3)cc2)cn2cccc12
## Result 300 to 3000 nM

## Task What about this compound? O=c1[nH]c(-c2ccc(OCc3ccccc3)cc2)cn2cccc12
## Result 300 to 3000 nM

## Task What about this compound? CCC(O)(CC)c1ccc(-c2cn3cc(F)cc3c(=O)[nH]2)cc1
## Result < 300 nM

## Task What about this compound? Cc1cc2c(=O)[nH]c(-c3cnn(C(C)(C)C)c3)cn2n1
## Result 3000 to 50000 nM

## Task What about this compound? Cn1cc(-c2ccc(-c3cn4cc(F)cc4c(=O)[nH]3)cc2)cn1
## Result 300 to 3000 nM

## Task What about this compound? CN1CCC(c2ccc(-c3cn4cccc4c(=O)[nH]3)cc2)CC1
## Result < 300 nM

## Task What about this compound? O=c1[nH]c(-c2ccc(C3CCNCC3)cc2)cn2cc(F)cc12
## Result 300 to 3000 nM

## Task What about this compound? O=c1[nH]c(-c2ccc(N3CCCC3)cc2)cn2nc(CO)cc12
## Result 300 to 3000 nM

## Task What about this compound? O=c1[nH]c(-c2ccc(C3(O)COC3)cc2)cn2cccc12
## Result 300 to 3000 nM

## Task What about this compound? Cn1cc(-c2ccc(-c3cn4cccc4c(=O)[nH]3)cc2)cn1
## Result < 300 nM

## Task What about this compound? Cc1cc2c(=O)[nH]c(-c3cnn(C(C)(C)C)c3)cn2c1
## Result 300 to 3000 nM

---

# Test system: tankyrase 1/2
# procedure.text: Cellular inhibition of Tankyrase: increase of Axin2 level in DLD1 cells (Luminex)
# Type: cell-based
# test.context: 24 hours, read-out: EC50 tankyrase 1/2 (cell assay)
# Description: Measurement of Cellular Inhibition of Tankyrase Since Tankyrases have been described to modulate cellular level of Axin2 (Huang et al., 2009; Nature) the increase of Axin2 level is used as read-out for determination of cellular inhibition of Tankyrases in a Luminex based assay. Cells of the colon carcinoma cell line DLD1 are plated in 96 well plates with 1.5×10^4 cells per well. […]
experimental.endpoint: EC50

Below are worked cases with known answers.
smi	assay.system	reported
COCCn1cc(-c2ccc(-c3cn4cccc4c(=O)[nH]3)cc2)cn1	tankyrase 1/2	300 to 3000 nM
COc1ccc(-c2cn3cccc3c(=O)[nH]2)cc1	tankyrase 1/2	3000 to 50000 nM
CC(C)(C)c1ccc(-c2cn3cccc3c(=O)[nH]2)cc1	tankyrase 1/2	< 300 nM
CC(C)(O)c1ccc(-c2cn3cc(Cl)cc3c(=O)[nH]2)cc1	tankyrase 1/2	< 300 nM

Could you now look at the following molecule, please?
## Task What does the data say about its EC50? Entry: O=c1[nH]c(-c2ccc(N3CCCC3)cc2)cn2nc(CO)cc12
## Result 300 to 3000 nM
